Test system: Colon cancer organoid
Test protocol: Optimized Dual-Glo assay to identify co-culture induced drug vulnerabilities using donated chemical probes and chemogenomics kinase set in O14 CRC organoid and F14 CAF mono and co-culture. […] Cell viability is reported both mono and co-culture models.
Type: functional, Homo sapiens
Set-up: dose or concentration left out as unconfirmed
Condition parameters: Culture type Mono-Culture; Transduced with Renilla-dsRed lentivirus
Cell Viability values for the compounds below.
Measured property: Cell Viability (%)

- CC(C)(C)OC(=O)N1CCCC1CNC1CCC(c2cc(F)ccc2F)(S(=O)(=O)c2ccc(Cl)cc2)CC1 (configuration not stated): 95.7632
- FC(F)c1nc2ccccc2n1-c1nc(N2CCOCC2)nc(N2CCOCC2)n1: 81.6405
- C=CC(=O)Nc1ccc2[nH]c(=O)n(C3CCN(C(=O)c4ccc(-c5nc6cc[nH]c(=O)c6cc5-c5ccccc5)cc4)CC3)c2c1: 83.7994
- CC(C)N(CCCNC(=O)Nc1ccc(C(C)(C)C)cc1)C[C@H]1O[C@@H](n2cc(Br)c3c(N)ncnc32)[C@H](O)[C@@H]1O: 78.3641
- CNCc1ccccc1-c1csc([C@@H](C)Nc2nc(C)nc3cc(OC)c(OC)cc23)c1: 107.217
- CCCOc1ccn2c(C(C)=O)cc(-c3cccc(OC)c3)c2c1: 98.1469
- Cn1cc(-c2[nH]c3cc(NC(=O)[C@H](N)C4CCCCC4)cc4c3c2C=NNC4=O)cn1: 82.9355
- Cc1cnc(Nc2ccc(F)cc2Cl)nc1-c1c[nH]c(C(=O)N[C@H](CO)c2cccc(Cl)c2)c1: 19.5504
- Cn1c(C2(NC(=O)c3ccc4c(C5CCCC5)c(-c5ncc(Br)cn5)n(C)c4c3)CCC2)nc2ccc(/C=C/C(=O)O)cc21: 89.5103
- Nc1ccc(C(=O)Nc2cccc(-c3nc(N4CCOCC4)c4oc5ncccc5c4n3)c2)cn1: 61.5192
- Cc1nnc2c3ccccc3c(N[C@@H](C)[C@H](c3ccccc3)N(C)C)nn12: 107.176
- Cc1cc(NC(=O)c2cccc(S(F)(F)(F)(F)F)c2)cc(-n2ccn3nc(-c4cccnc4)cc23)c1: 76.6739
- Cl.Cl.c1ccc([C@@H]2C[C@H]2NC2CCNCC2)cc1: 113.061
- Cn1cc(C2=C(c3cn(C4CCN(Cc5ccccn5)CC4)c4ccccc34)C(=O)NC2=O)c2ccccc21: 83.0179
- CN(C)C(=O)Cn1cc(-c2ccc(-c3nnc4ccccn34)cc2)cn1: 87.3202
- c1ccc(C2CCN(c3cnc4c(N5CCOCC5)nccn34)CC2)cc1: 89.751
- COc1nc2ccc([C@@](O)(c3ccccc3)C3CCN(C(C)=O)CC3)cc2c(Cl)c1Cc1ccc(-n2cccn2)cc1: 104.355

---

Recorded Cell Viability for the following compounds
Test system: Colon cancer organoid
Test protocol: Optimized Dual-Glo assay to identify co-culture induced drug vulnerabilities using donated chemical probes and chemogenomics kinase set in O06 CRC organoid and F06 CAF mono and co-culture. […] Cell viability is reported both mono and co-culture models.
Type: functional, Homo sapiens
Set-up: dose or concentration left out as unconfirmed
Condition parameters: Culture type Co-Culture; Transduced with Renilla-dsRed lentivirus
Measured property: Cell Viability (%)

• CCc1cccc(CC)c1NC(=O)c1nn(C)c2c1CCc1cnc(Nc3ccc(C(=O)NC4CCN(C)CC4)cc3OC(F)(F)F)nc1-2 = 150.393
• CN(C)CC#Cc1ccc(OCCCc2sc(N3CCc4cccc(C(=O)Nc5nc6ccccc6s5)c4C3)nc2C(=O)O)c(F)c1 [A-1155463] = 128.541
• Cn1cc(-c2[nH]c3cc(NC(=O)[C@H](N)C4CCCCC4)cc4c3c2C=NNC4=O)cn1 = 180.436
• CN(C)C(=O)c1ccc(-c2cc(C(=O)N(C)C3CCCC3)no2)cc1O = 129.278
